# experiment.notes: folding stability dG unfold from trypsin proteolysis; higher = more stable
// values below are reported folding stability dG unfold

Solved entries:
Please report the recorded folding stability dG unfold for SAGGSAGGSKMLLVKVYVPEFDTVVVFEAPRDITIEEIEERLREAGFSVARIEVVEFDLPEGGSAGGSAGGS [r12_955_TrMRF] .
3.02 kcal/mol

Same question for SAGMTIEIEIPASTSAEEAVERVEAIVEEVRKAGKKFELTIKTSDPALAAAVRAALEAAGVPVTVEVDSAGG [r19_268_JUSTAS] please.
4.07 kcal/mol

Same question for SAGGSAGGSAGGGSSVITTTETDPANGLLTTTTTTINGSETVPSSTVSPVPPPPPPSTLSAGGSAGGSAGGS [r10_354_JUSTAS] please.
1.67 kcal/mol

Same question for SAGGSAGGPNYFVRITIKMRKPNGKPIGEFPIWIPFKSKEQARSLADELAQMPGIEKVDIELVPSAGGSAGG [r6_475_TrROS] please.
2.22 kcal/mol

Same question for SAGGSAGGEIRERLRELIEQLPEEELVVRIRRNGEEVELTFRTREDLEAALEANPEAEIEIVRRSAGGSAGG [r6_421_TrROS_Hall] please.
2.02 kcal/mol

More entries:
Please report the recorded folding stability dG unfold for SAGMKTLEKTGSAAKIEEAIAAGKSLEEVFETAGKDGGTSRTLTEPNRTLTFSGETSKPGVATLTTIPESAG [r5_343_JUSTAS] .
-0.662 kcal/mol

Same question for SAGKTRTINFPGFQIQVQRDPDGKKEITIMFDNPEQRKQMIEQNPFLREFIEWAEKDGLKVEIHVMPPKSAG [r14_873_TrROS] please.
1.85 kcal/mol

----------
# experiment.notes: folding stability dG unfold from trypsin proteolysis; higher = more stable
Returns true (1) if the recorded folding stability dG unfold is greater than or equal to 3 kcal/mol, and false (0) otherwise.

Reference set, count: 3
Dear colleague, could you confirm whether SAGGSPWIFVIKIEWEPRDPDGKKKKYEYSIVITATPNQLDELLEQIKKAPPGYKIKEVKIEVFPFSAGGSA [r2_75_TrROS] has folding stability dG unfold at or above 3 kcal/mol?
false (0)

Same question for SAGGSEAIKEALELAKENPGKTVEVEIKNEDGSIYKIKIEVKEGKVVKVEVEKVKKEEVLSEEEKKSAGGSA [r2_263_TrROS_Hall] please.
false (0)

Same question for SAGGPSAENLVEGDKVLLLIPLGDGPERRLELPLPDGRPVVVEVEPDRPGLITVTIPETGKPIVLPLSAGGS [r16_198_TrMRF] please.
false (0)

More entries:
Dear colleague, could you confirm whether SAGGSAGGSKEVKTIKVEITITDKNGKKITVKAEIVYDKKTKKYYIKIRNKKTNKTYIIELKLSAGGSAGGS [r20_71_TrROS_Hall] has folding stability dG unfold at or above 3 kcal/mol?
true (1)

Same question for SAGGSAGGMTSDKPVLPALIRVYYPNEGREETIPVLLGEDMPLEEALRIARELAHPDAKAEILNSAGGSAGG [r6_440_TrMRF] please.
false (0)

Same question for SAGGSAGGSAGKLKIKKVKVVKTETFTLPNGYTIKVSYVEVEVDGKKYLFKSVEIYPKKESAGGSAGGSAGG [r11_129_TrROS_Hall] please.
false (0)

Same question for SMVKTIEIEIVLPPGEWVKLTEEDIKEKIEKELPGWKILSIDITKEERLVPGGTEPLVVIKAKILVEKKESA [r9_1189_JUSTAS] please.
true (1)

----------
# experiment.notes: folding stability dG unfold from trypsin proteolysis; higher = more stable
measured.quantity: folding stability dG unfold (kcal/mol)
Reply numerically in kcal/mol, unit not repeated.

Solved entries:
Please report the recorded folding stability dG unfold for SAGSPPDDVREEETEEVVPSPDGSLTVTRTPVVRRPGEEEEVRTETTVYFPPSDETLTSESLTRFPGASAGG [r19_387_JUSTAS] .
0.356

Same question for SAGGEGEILDKKEFTFPDNVKLEVYVFKVGDKYFVKVKTTITVPENPTKPKKPLKKITPEDIKKALEKSAGG [r13_760_TrMRF] please.
0.151

Same question for SAGGSAGGSLLEDIKKALEIIKPPPIPVKVKVKIEYDPEKGELKVEVEFFGIKLKVEGEFKIESAGGSAGGS [r20_230_TrMRF] please.
2.07

More entries:
Please report the recorded folding stability dG unfold for SAGGMVTIELREVSEEEALKLAEELPPNTLLIPFPFGNLVLPVRVPDDPEVREKVAEEIRKFLEALPSAGGS [r16_311_TrMRF] .
1.13

Same question for STIRITLPKEELSPELLEALAKAPGLSEEELRDRLTVEEVDGEVVITLSPEVLEELRKRNPELLEALEKASA [r9_160_TrROS_Hall] please.
3.32

Same question for SADPLSSILSQALSVEFDPETGKVTITTKDKSIVEKALEEGAENATLTESEDDIYTATIDLPPLPEGVLSAG [r14_115_TrMRF] please.
0.576

Same question for SGLPEELARKLGLSAMTPLPDGTLVMALPDGTRVVVRIETTEVRLSPLGEPAVEVEVEVERLPAPAPEAASA [r9_648_JUSTAS] please.
1.5

----------
// values below are reported folding stability dG unfold
# experiment.notes: folding stability dG unfold (combined trypsin and chymotrypsin); higher = more stable

Please report the recorded folding stability dG unfold for SAGGSAGGSETVTLTLVVDSPEEAKALIDALKKAGIKEVTLEEKDGKLVLTITMSKEELEKLKSAGGSAGGS [r12_846_TrROS_Hall] .
3.41 kcal/mol

Same question for SAGGSAGGIHPDVKVKLVKIVSVEEGEGEVVAKALVELPNGERVVVSSEVLKELLEENPDVDVSSAGGSAGG [r6_77_TrMRF] please.
0.819 kcal/mol

Same question for SAGGSAGGMIREIEVKVSPEFPSVEEVVEELKAKGYEVKRIEEDPETDEVIVYVVKKVPEEEHHSAGGSAGG [r6_604_JUSTAS] please.
1.08 kcal/mol

More entries:
Please report the recorded folding stability dG unfold for SAGGSAGGSAGMSPNIVSYETVESDKNGNIIKKTTYLYSDNTIITETFSPKKKKKIQTFSKESAGGSAGGSA [r18_302_JUSTAS] .
< -1 kcal/mol

----------
# experiment.notes: folding stability dG unfold from chymotrypsin proteolysis; higher = more stable
// values below are reported folding stability dG unfold
Reply numerically in kcal/mol, unit not repeated.

Solved entries:
Please report the recorded folding stability dG unfold for SAGGSAGGSTIDITLPDLDEEEIREYLKELFPDVEVTIEYDPSTNTYTLKVGGDEVVVTRLPPNSAGGSAGG [r6_609_JUSTAS] .
3.43

Same question for SAGGGEIKIEIYRHPDTIMIRVKWDNPQQLKEEIIELFREENGFKPKEVSVQYNPNGYLYIMFEFKPKSAGG [r13_158_TrROS] please.
4.12

Same question for SAGGSANWYIKITIEYPNGREWEIPFPFKSVEDVKDQIKNAAREYFPNLPPEDVKIDDIELYPLDDSAGGSA [r15_220_TrROS] please.
2.01

Same question for SAGGSAGGSAGPKSIPLDNATVTEFDSPNGDKVFIFSHPNKKKRLAILKDGKLVKEIPIESAGGSAGGSAGG [r11_1038_TrMRF] please.
0.0908

Same question for SAGGSAGGSAGGKKTLVIEFDLEPGGLTAEEIEELLRPYTGKEVRLETHPDGKPVAVVEGSAGGSAGGSAGG [r7_330_TrMRF] please.
-0.616

Same question for SAGGSAGGSAGGSWMRMEAEVRHPNKRDVTIPIPYRSKDGEPDMKERAKEFARELAKDYSAGGSAGGSAGGS [r4_168_TrROS] please.
-0.315

Same question for SAGGSAGGSAEPGPEELAKALAGELEKRFGKPVKEVKAYEIPGEKRYIVTAKLDDGEFTIIASAGGSAGGSA [r18_145_TrMRF] please.
-0.235

Same question for SAGGSAGGSAGGLIPPNQKIKIKEIEPPNNEMNIDLEYPDNGKKVEFPFDSPEQALDALSAGGSAGGSAGGS [r10_1038_TrROS] please.
0.658

Same question for SAGGKRRTINFDIEGMTPEKFVHMARMAIRNLPDPEQVTITINMRNPMWRRWFIELAKELPGIEIEFMSAGG [r13_718_TrROS] please.
3.43

Same question for SAGGSAGGSMTETVEKAPDGTPVLVLKETEESTGDGGKTILRPSTVLLPPGTVLSTEDEVILESAGGSAGGS [r12_581_JUSTAS] please.
1.83

More entries:
Please report the recorded folding stability dG unfold for SAGGSAGGSAGSPLAQAVIDELKAQGYTVEAVTVTQPPGNAPVVVVTVKKPDGTRVVIDLSAGGSAGGSAGG [r11_780_JUSTAS] .
2.18

Same question for SIWFSPGKKYKIDEIRFGGWEIEKFTAQVGPDGNIQIPMDIKPVKKPPPPPPVVRNPEDGKYYDPGDPKDSA [r9_603_TrROS] please.
1.64

Same question for SAGGSAGGDEKAKEELKKKKPPKIELTVKVEVEVSEDGTVKVKAKVFGPDGKLIAEAEFTFKVKSAGGSAGG [r6_419_TrROS_Hall] please.
2.5

Same question for SAGGSAGGSAGMKTTYDPDTNKLSITLPNGTVATYYLGTGVIEIPDEVSSKEDIKVEKAASAGGSAGGSAGG [r17_174_JUSTAS] please.
0.956
